Hey, just so you know, these numbers are from patent US20130123281A1.

# EXPERIMENTAL_SYSTEM: full length recombinant human TBL1 (Homo sapiens, UniProt O60907)
# Construct: full length recombinant human TBL1 or full length recombinant human β-catenin
# Sequence (O60907 1-577): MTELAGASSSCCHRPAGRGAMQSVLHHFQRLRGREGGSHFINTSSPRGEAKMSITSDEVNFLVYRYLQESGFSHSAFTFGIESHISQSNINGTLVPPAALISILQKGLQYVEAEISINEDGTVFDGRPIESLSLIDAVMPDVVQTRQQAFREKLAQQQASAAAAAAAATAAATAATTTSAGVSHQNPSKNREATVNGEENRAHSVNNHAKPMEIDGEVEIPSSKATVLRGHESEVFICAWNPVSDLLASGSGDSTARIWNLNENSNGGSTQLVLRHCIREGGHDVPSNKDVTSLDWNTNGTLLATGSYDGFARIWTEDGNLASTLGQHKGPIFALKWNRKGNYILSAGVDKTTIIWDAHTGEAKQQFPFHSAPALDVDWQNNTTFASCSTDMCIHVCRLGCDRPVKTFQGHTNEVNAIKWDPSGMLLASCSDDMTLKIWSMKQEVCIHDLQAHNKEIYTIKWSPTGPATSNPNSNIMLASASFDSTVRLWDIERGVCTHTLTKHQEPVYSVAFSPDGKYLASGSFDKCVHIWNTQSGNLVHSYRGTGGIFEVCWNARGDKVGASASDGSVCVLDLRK
# EXPERIMENT_SUMMARY: Saturation binding assay with biotinylated compound on coated TBL1
# CONDITION_DESCRIPTION: biotinylated compound 0.1 nM to 10 μM, 2 h at room temperature; read-out: IC50 of binding to TBL1 at the equilibrium
ENDPOINT_NAME: pIC50
Please keep in mind that pIC50 is minus log10 of the molar concentration; only the number is needed.

Exercise: // pIC50 lookup, key: "C[C@@H]1C[C@H](C)CN(S(=O)(=O)c2ccc3c(c2)C(=NO)c2cc(S(=O)(=O)N4C[C@H](C)C[C@H](C)C4)ccc2C3=NO)C1"
Key: 7.70

====

# Tested on: HCT116 cells
# EXPERIMENT_SUMMARY: Cell screening in HCT116 cells (Table 5)
# Type: cell-based
# CONDITION_DESCRIPTION: Homo sapiens, HCT-116
ENDPOINT_NAME: EC50 (µM)
Reply numerically in µM, unit not repeated.

Exercise: Give recorded EC50 with HCT116 cells for the following compound: CC(Nc1ncnc2[nH]cnc12)c1cnn(-c2ccccc2F)c1 (stereo not shown) [Compound 15]
Key: 0.127

====

Parameter: EC50. Scope: all listed entries.
# EXPERIMENTAL_SYSTEM: TBL1 (Homo sapiens)
# Construct: full length recombinant human TBL1 or full length recombinant human β-catenin; purchased ABNOVA
# Sequence (O60907 1-577): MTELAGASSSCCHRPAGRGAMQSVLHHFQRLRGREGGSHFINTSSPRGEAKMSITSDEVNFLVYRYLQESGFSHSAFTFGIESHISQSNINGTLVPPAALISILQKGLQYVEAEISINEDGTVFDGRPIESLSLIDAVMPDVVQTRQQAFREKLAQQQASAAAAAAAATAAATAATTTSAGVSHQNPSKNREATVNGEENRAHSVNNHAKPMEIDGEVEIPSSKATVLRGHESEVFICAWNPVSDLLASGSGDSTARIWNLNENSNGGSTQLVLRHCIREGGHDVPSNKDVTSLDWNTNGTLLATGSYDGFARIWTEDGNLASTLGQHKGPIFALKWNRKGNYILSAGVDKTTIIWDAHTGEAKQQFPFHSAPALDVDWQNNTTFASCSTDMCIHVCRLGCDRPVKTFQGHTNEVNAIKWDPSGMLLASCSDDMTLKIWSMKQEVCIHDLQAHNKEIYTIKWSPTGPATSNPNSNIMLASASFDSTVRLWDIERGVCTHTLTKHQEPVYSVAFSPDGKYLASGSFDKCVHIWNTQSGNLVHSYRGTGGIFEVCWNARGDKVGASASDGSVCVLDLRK
# EXPERIMENT_SUMMARY: TBL1 inhibition (Table 5)
# Assay type: binding
Reply numerically in µM, unit not repeated.

Here are 3 compounds together with their reported answers.
- COMPOUND: "CN(Cc1ccncc1)Cc1ccc(-c2nc(-c3cccnc3)cc(=O)[nH]2)cc1"
  DISPLAY_UNIT: "µM"
  EC50: 0.28
- COMPOUND: "CC(Nc1ncnc2[nH]cnc12)c1cnn(-c2ccccc2F)c1 (stereo not shown)"
  DISPLAY_UNIT: "µM"
  EC50: 0.054
- COMPOUND: "CC(C)N(C)Cc1ccc(-c2nc(-c3cccnc3)cc(=O)[nH]2)cc1"
  DISPLAY_UNIT: "µM"
  EC50: 102

Note: attention shifts to another entry.
Exercise: // EC50 lookup, key: "Cc1ccc(CN(C)Cc2ccc(-c3nc(-c4cccnc4)cc(=O)[nH]3)cc2)o1"
Key: 0.29
